assay-target: SIRT1 (Homo sapiens)
Sequence (Q96EB6 whole entry): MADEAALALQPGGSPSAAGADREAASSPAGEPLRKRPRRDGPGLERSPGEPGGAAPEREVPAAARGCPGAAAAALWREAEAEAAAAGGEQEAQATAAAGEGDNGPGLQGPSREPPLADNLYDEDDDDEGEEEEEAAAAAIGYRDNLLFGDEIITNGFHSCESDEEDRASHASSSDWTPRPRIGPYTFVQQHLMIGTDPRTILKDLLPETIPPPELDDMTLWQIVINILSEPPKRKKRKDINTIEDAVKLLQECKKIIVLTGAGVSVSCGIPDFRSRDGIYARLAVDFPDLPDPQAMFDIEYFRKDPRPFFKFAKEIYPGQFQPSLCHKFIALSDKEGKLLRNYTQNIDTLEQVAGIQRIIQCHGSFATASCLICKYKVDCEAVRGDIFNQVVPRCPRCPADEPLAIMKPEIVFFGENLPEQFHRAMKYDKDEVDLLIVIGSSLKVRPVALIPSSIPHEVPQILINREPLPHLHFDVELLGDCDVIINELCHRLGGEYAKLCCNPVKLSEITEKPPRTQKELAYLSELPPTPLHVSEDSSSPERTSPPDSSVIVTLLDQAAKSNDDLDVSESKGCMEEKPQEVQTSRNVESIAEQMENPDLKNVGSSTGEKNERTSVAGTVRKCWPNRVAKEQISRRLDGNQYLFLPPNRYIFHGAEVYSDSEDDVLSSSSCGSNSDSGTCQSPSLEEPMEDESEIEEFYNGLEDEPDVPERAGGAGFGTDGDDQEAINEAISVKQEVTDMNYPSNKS
assay-details: TAMRA based mass spectrometry assay of SIRT1 activity
Format: biochemical
study-conditions: percent maximum fold activation of SIRT1; TAMRA peptide substrate; read-out: TAMRA % Fold Act
endpoint: Emax

Answered examples (2):
[[record]]
structure_string = "O=C(Nc1cccc(CN2CCOCC2)n1)c1cnc2ccc(-c3ccccc3Cl)nn12"
assay_target = "SIRT1 (Homo sapiens)"
observed_result = "≥ 350%"

[[record]]
structure_string = "O=C(Nc1nc(CN2CCOCC2)cs1)c1cnc2ccc(-c3cc(F)ccc3F)nn12"
assay_target = "SIRT1 (Homo sapiens)"
observed_result = "< 350%"


Prompt: Please give the documented Emax of O=C(Nc1cccnc1)c1cnc2ccc(-c3ccccc3Cl)nn12
Completion: < 350%

Prompt: Please give the documented Emax of O=C(Nc1cnc2ccc(-c3ccccc3C(F)(F)F)nn12)c1cccc(CN2CCCC2)n1
Completion: ≥ 350%

====

assay-target: SIRT1 (Homo sapiens)
assay-details: TAMRA based mass spectrometry assay of SIRT1 activity
Type: biochemical
study-conditions: TAMRA assay; concentration giving 150% activation of SIRT1
endpoint: TAMRA EC1.5 (μM)

[[record]]
compound = "Cc1cc(C)c(NC(=O)c2cnn3ccc(-c4ccccc4OC(F)(F)F)nc23)cn1"
observed_result = "B (EC1.5 1-25 μM)"

[[record]]
compound = "O=C(Nc1cccc(OCC(F)(F)F)n1)c1cnc2ccc(-c3ccccc3F)nn12"
observed_result = "C (EC1.5>25 μM)"

[[record]]
compound = "O=C(Nc1cnn2ccc(-c3ccccc3C(F)(F)F)nc12)c1nc(C(F)(F)F)cs1"
observed_result = "A (EC1.5<1 μM)"

[[record]]
compound = "O=C(Nc1ccncc1)c1cnn2ccc(-c3ccccc3C(F)(F)F)nc12"
observed_result = "A (EC1.5<1 μM)"

[[record]]
compound = "Cc1ccc(NC(=O)c2cnc3ccc(-c4ccccc4OC(F)(F)F)nn23)nn1"
observed_result = "A (EC1.5<1 μM)"

[[record]]
compound = "Cc1scnc1C(=O)Nc1cnc2c(C)c(C)c(-c3ccccc3Cl)nn12"
observed_result = "A (EC1.5<1 μM)"


Prompt: Provide SIRT1 (Homo sapiens) TAMRA EC1.5 (μM) reading for Cc1cc(NC(=O)c2cnc3ccc(-c4ccccc4C(F)(F)F)nn23)nc(C)n1 .
Completion: A (EC1.5<1 μM)

Prompt: Provide SIRT1 (Homo sapiens) TAMRA EC1.5 (μM) reading for Cc1c(-c2ccccc2C(F)(F)F)nn2c(C(=O)Nc3cccc(OC[C@H](O)CO)n3)cnc2c1C .
Completion: A (EC1.5<1 μM)

Prompt: Provide SIRT1 (Homo sapiens) TAMRA EC1.5 (μM) reading for Cc1ccnc(NC(=O)c2cnn3ccc(-c4ccccc4OC(F)(F)F)nc23)c1 .
Completion: A (EC1.5<1 μM)

Prompt: Provide SIRT1 (Homo sapiens) TAMRA EC1.5 (μM) reading for Cc1cc(C)nc(NC(=O)c2cnc3c(C)c(C)c(-c4ccccc4Cl)nn23)c1 .
Completion: A (EC1.5<1 μM)

Prompt: Provide SIRT1 (Homo sapiens) TAMRA EC1.5 (μM) reading for Cc1nc2ccc(-c3ccccc3Cl)nn2c1NC(=O)c1ncccn1 .
Completion: C (EC1.5>25 μM)

Prompt: Provide SIRT1 (Homo sapiens) TAMRA EC1.5 (μM) reading for Cc1ccc(NC(=O)c2cnn3ccc(-c4ccccc4OC(F)(F)F)nc23)cn1 .
Completion: A (EC1.5<1 μM)

Prompt: Provide SIRT1 (Homo sapiens) TAMRA EC1.5 (μM) reading for Cc1c(-c2ccccc2C(F)(F)F)nn2c(C(=O)Nc3cccc(N4CCOCC4)n3)cnc2c1C .
Completion: A (EC1.5<1 μM)

Prompt: Provide SIRT1 (Homo sapiens) TAMRA EC1.5 (μM) reading for O=C(Nc1ccncc1F)c1cnc2ccc(-c3ccccc3OC(F)(F)F)nn12 .
Completion: B (EC1.5 1-25 μM)

Prompt: Provide SIRT1 (Homo sapiens) TAMRA EC1.5 (μM) reading for CCOc1ccc(NC(=O)c2cnn3ccc(-c4ccccc4C(F)(F)F)nc23)nn1 .
Completion: A (EC1.5<1 μM)

Prompt: Provide SIRT1 (Homo sapiens) TAMRA EC1.5 (μM) reading for O=C(Nc1cnc2ccc(-c3ccccc3F)nn12)c1ncccn1 .
Completion: B (EC1.5 1-25 μM)

Prompt: Provide SIRT1 (Homo sapiens) TAMRA EC1.5 (μM) reading for O=C(Nc1nccc(OCC(O)CO)n1)c1cnc2ccc(-c3ccccc3C(F)(F)F)nn12 (centres unmarked) .
Completion: B (EC1.5 1-25 μM)
